- system.tested: SARS-CoV RdRp (nsp12, nsp7 and nsp8) (Severe acute respiratory syndrome coronavirus, UniProt P0C6X7)
- Assay type: biochemical

compound	termination of the polymerase reaction
Cc1cn([C@H]2C[C@H](N=[N+]=[N-])[C@@H](COP(=O)(O)OP(=O)(O)OP(=O)(O)O)O2)c(=O)[nH]c1=O [3′-N3-dTTP, 3′-N3-3′-deoxythymidine triphosphate]	permanent terminators
Cc1cn([C@H]2C[C@H](F)[C@@H](COP(=O)(O)OP(=O)(O)OP(=O)(O)O)O2)c(=O)[nH]c1=O [3′-F-dTTP, 3′-fluoro-3′-deoxythymidine triphosphate]	permanent terminators
